# target of assay: Orexin/Hypocretin receptor type 1 (Homo sapiens, UniProt O43613)
# Sequence (O43613 whole entry): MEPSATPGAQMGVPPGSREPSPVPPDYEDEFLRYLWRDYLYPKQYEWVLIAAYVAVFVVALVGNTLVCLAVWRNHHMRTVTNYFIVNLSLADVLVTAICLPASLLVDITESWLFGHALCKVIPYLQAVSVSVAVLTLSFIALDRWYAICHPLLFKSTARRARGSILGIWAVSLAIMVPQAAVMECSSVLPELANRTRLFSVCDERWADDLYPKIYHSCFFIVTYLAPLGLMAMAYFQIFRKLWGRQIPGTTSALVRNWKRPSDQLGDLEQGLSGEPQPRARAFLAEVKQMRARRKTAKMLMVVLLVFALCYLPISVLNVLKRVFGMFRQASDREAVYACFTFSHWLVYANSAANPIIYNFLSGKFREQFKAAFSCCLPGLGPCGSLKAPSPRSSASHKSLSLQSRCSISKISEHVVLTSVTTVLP
# method summary: Binding affinity to OX1R (unknown origin)
reported metric: pKi
Scale for pKi: -log10 of concentration given in mol/L; no unit attached.

For the compound shown here, Cc1ccc(-n2nccn2)c(C(=O)N2C[C@@H](COc3ccc(F)c(C)c3)CC[C@H]2C)c1 (racemic) , give the reported pKi. 7.47

* * *

# method summary: Ratio of drug level in CSF to plasma in rat
# Assay type: ADME, cell-free
reported metric: Kp
Please state the value as a number alone, without comment.

For the compound shown here, Cc1ccc(-c2ncccn2)c(C(=O)N2C[C@H](COc3ccc(F)cn3)CC[C@H]2C)c1 [FILOREXANT] , give the reported Kp. 0.04
